// data source = patent US20180244769A1

Target: human P2X7 (hP2X7) (human) (UniProt Q99572)
Sequence (Q99572 whole entry): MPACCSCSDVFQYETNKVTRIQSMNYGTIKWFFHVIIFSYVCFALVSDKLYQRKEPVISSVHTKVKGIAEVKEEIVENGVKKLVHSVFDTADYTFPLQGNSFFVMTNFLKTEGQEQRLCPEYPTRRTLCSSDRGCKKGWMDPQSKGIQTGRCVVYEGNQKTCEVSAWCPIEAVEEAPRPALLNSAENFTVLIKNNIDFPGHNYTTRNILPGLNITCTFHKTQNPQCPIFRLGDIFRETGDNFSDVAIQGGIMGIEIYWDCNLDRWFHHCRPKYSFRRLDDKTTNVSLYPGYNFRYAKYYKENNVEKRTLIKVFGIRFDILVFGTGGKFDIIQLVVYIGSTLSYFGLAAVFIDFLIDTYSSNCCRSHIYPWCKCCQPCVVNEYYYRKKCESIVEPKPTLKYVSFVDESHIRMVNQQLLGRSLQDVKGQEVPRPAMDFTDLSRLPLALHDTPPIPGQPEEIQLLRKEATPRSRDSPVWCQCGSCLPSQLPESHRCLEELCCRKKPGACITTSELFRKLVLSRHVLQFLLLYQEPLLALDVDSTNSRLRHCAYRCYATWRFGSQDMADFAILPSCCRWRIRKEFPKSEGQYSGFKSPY
Test: cell-based or functional assay
outcomeMeasure: IC50 [nM], blockade of L-selectin (CD62L) shedding in transfected HEK cells, 4 mM ATP (nM)

Consider the reported IC50 [nM], blockade of L-selectin (CD62L) shedding in transfected HEK cells, 4 mM ATP for these binders:
| binder | numericReadout |
| --- | --- |
| 1c81-Fc (Nb 1c81 fused to the Fc-domain of mouse IgG1) (Fc fusion, not shown: small tags and cut ends; a dimerising Fc or GST) EVQLVESGGKLVQAGGSLRLSCSASGRTFSFSTSTMGWFRQAPGKELEFVAAIDWSDFNTYYADSVKGRFTISRHNPRNSVYLQLNSLKPEDTAVYYCAAHSETRGGTRYFDRPSLYNYWGQGTQVTVSSA | 5 |
| 3c23-Fc (Nb 3c23 fused to the Fc-domain of mouse IgG1) (Fc fusion, Bivalent N-terminally FLAG-tagged Nb-Fc fusion protein made in HEK cells; Used unconjugated or conjugated to Alexa647; also called WD3c23Fc; Nb 3c23-Fc; not shown: N-terminal FLAG tag; Fc-domain of mouse IgG1) EVQLVESGGGLVQAGGSLRLSCAASGRTFRHYAMGWFRQAPGKEREFVAAISSYGSTDYGDSVKGRFTISRDDAKNTVPLQMNSLKPEDTAVYYCAAADETLGAVPNFRLHEKYEYEYWGQGTQVTVSSA | 0.6 |

a. Nb 1c81 (monovalent) (VHH) VHH: EVQLVESGGKLVQAGGSLRLSCSASGRTFSFSTSTMGWFRQAPGKELEFVAAIDWSDFNTYYADSVKGRFTISRHNPRNSVYLQLNSLKPEDTAVYYCAAHSETRGGTRYFDRPSLYNYWGQGTQVTVSS
b. Nb 3c23 (monovalent) (VHH) VHH: EVQLVESGGGLVQAGGSLRLSCAASGRTFRHYAMGWFRQAPGKEREFVAAISSYGSTDYGDSVKGRFTISRDDAKNTVPLQMNSLKPEDTAVYYCAAADETLGAVPNFRLHEKYEYEYWGQGTQVTVSS
Prompt: Short answer wanted: higher IC50 [nM], blockade of L-selectin (CD62L) shedding in transfected HEK cells, 4 mM ATP, a or b ? Please indicate the selected item by its label.
Completion: a
(a: 100 nM, b: 2.7 nM)
